Target: Torsin-1A-interacting protein 2 (Homo sapiens)
Test: LULL1 binders on small-molecule microarray, primary screen, cell lysate, human LULL1 lysate, 635/667 nm fluorescence (AID 1092);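 further: probe is lysate of COS7 cells overexpressing human LULL1; score merges per-feature 667 nm fluorescence with signal-to-noise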
Details: hLULL1 lysate binding, 635 nm fluorescence, higher = more signal
reported.property: composite z-score
Could you respond with only the numeric value?

composite z-score reported for this molecule C=C(CCCC)/C(=C/C[C@H](OC(C)=O)c1cccc(OCCO)c1)c1cc(C(=O)OC)ccc1OC : 0.628

composite z-score reported for this molecule CC(C)C[C@@H]1NC(=O)C([C@@H](C)OCc2ccccc2)NC(=O)[C@@]23C(=O)N[C@@H](Cc4ccccc4)C2[C@H](C)[C@@]2(C)O[C@H]2C3/C=C/CC/C=C/CNC1=O (some centres not stated) : 1.82

composite z-score reported for this molecule CN1C(=O)[C@]2(CCS(=O)(=O)c3ccccc3)N=C(c3ccc(OCCCO)cc3)O[C@@H]2c2ccccc21 : 3.41

composite z-score reported for this molecule C=CCC(OC(C)=O)[C@@H]1[C@@H](N(Cc2cccc3ccccc23)C(=O)c2ccc(-c3ccccc3)cc2)c2cc(OCCCO)ccc2N1C(=O)c1ccc2ccccc2n1 (some centres not stated) : 1.01

composite z-score reported for this molecule CC(C)CNC(=O)[C@@H]1c2ccccc2C(=O)N(Cc2ccccc2Cl)[C@H]1c1ccc(CO)cc1 : 3.09

composite z-score reported for this molecule NC(=O)N1C(=O)C2C(C1=O)C1C=C(CCCO)C2C(c2ccc(CN3CCCC3)cc2)N1Cc1cccc(OC(F)(F)F)c1 (configuration not stated) : 1.28

composite z-score reported for this molecule COc1ccc([Si](C)(C)[C@@H]2[C@@H](CC(=O)N(CCO)Cc3ccccc3)O[C@]3(C(=O)N(Cc4ccc(N5CCC5=O)cc4)c4ccccc43)[C@H]2C)cc1 : 0.628
